# assay: Liver microsome stability test
# Type: in vitro ADME
# experimentalParameters: human liver microsomes, 30 minutes
reportedMetric: recovery at 30 min

Ask: For the compound CC1OC2CC(O)C1(O)c1c(O)c3c(c(O)c12)C(=O)C1=C(C3=O)[C@H](C)O[C@H]2CC(=O)O[C@@H]12 (stereo partly shown) [Granaticin A, granaticin A] , report recovery at 30 min.
Reply: 23.9%

---

Catalogue of IC50 values
# System: ALL3
# assay: Cytotoxicity assay (Alamar blue)
# Assay type: cell-based
# experimentalParameters: Human Acute Lymphoblastic leukemia, Philadelphia chromosome positive
The response must be a number in nM with no trailing unit.

{"compound": "CC1OC2CC(O)C1(O)c1c(O)c3c(c(O)c12)C(=O)C1=C(C3=O)[C@H](C)O[C@H]2CC(=O)O[C@@H]12 (some centres unmarked)", "assayTarget": "ALL3", "reportedMetric": "IC50", "unitSymbol": "nM", "experimentalValue": 140}

# next compound below
Ask: For the compound CC1OC2CC(O[C@H]3CC[C@H](O)[C@H](C)O3)C1(O)c1c(O)c3c(c(O)c12)C(=O)C1=C(C3=O)[C@H](C)O[C@H]2CC(=O)O[C@@H]12 (some centres unmarked) , report IC50.
Reply: 30
